assaySystem: T1, CD3 epsilon homodimer protein (UniProt P07766 23-126)
T1 construct: also called CD3 (CD3 epsilon)
T1 sequence (P07766 23-126): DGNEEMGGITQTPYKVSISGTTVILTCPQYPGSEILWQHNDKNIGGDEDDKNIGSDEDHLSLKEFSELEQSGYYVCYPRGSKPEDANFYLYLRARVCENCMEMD
assayProtocol: SPR Biacore T200, CD3e homodimer on chip, vs unaltered GLS3000 antibody

>  <binder>
GLS3000 G91T (antibody, name in Kabat numbering, V domains shown, one-arm IgG as m2) VH: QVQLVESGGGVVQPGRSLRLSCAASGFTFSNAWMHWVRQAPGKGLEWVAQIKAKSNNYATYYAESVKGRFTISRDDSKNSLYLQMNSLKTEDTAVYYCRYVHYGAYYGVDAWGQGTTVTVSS VL: DIVMTQSPLSLPVTPGEPASISCRSSQSLVHSNRNTYLHWYQQKPGQAPRLLIYKVSNRFSGVPDRFSGSGSGTDFTLKISRVEAEDVGVYYCGQTTQVPYTFGQGTKLEIK

>  <ratio of amounts bound (Z=Y/X)>
0.26

$$$$
>  <binder>
GLS3000 K50R (antibody, name in Kabat numbering, V domains shown, one-arm IgG as m2) VH: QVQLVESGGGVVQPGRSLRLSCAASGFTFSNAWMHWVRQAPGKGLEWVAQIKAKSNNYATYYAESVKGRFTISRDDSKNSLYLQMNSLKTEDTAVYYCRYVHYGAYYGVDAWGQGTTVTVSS VL: DIVMTQSPLSLPVTPGEPASISCRSSQSLVHSNRNTYLHWYQQKPGQAPRLLIYRVSNRFSGVPDRFSGSGSGTDFTLKISRVEAEDVGVYYCGQGTQVPYTFGQGTKLEIK

>  <ratio of amounts bound (Z=Y/X)>
0.5

$$$$
>  <binder>
GLS3000 H34G (antibody, name in Kabat numbering, V domains shown, one-arm IgG as m2) VH: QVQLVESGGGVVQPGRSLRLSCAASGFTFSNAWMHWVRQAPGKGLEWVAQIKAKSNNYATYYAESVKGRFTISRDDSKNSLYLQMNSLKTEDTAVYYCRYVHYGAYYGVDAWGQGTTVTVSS VL: DIVMTQSPLSLPVTPGEPASISCRSSQSLVHSNRNTYLGWYQQKPGQAPRLLIYKVSNRFSGVPDRFSGSGSGTDFTLKISRVEAEDVGVYYCGQGTQVPYTFGQGTKLEIK

>  <ratio of amounts bound (Z=Y/X)>
1.02

$$$$
